System: 171881-019-R-J1-PDC complex spheroid growth, % test/control;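 further: spheroids exposed to compounds for 7 days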
Assay: Anticancer human tumor 171881-019-R-J1-PDC patient-derived invasive breast carcinoma cell line growth inhibition [Asc]
Conditions: second compound 0.949 µM; first compound 0.0316 µM; hits give low values
Measurement Type: viability, T/C (%)
Just the number in %, nothing appended.

>  <Compound>
C=CC(=O)N1CCN(c2nc(=O)n(-c3c(C)ccnc3C(C)C)c3nc(-c4c(O)cccc4F)c(F)cc23)C(C)C1 (stereo not given) + CCN1C(C(=O)NC23CCC(C(=O)O)(CC2)CC3)C(c2cccc(Cl)c2F)C2(C(=O)Nc3cc(Cl)ccc32)C12CCCCC2

>  <Study System>
171881-019-R-J1-PDC complex spheroid growth, % test/control;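 further: spheroids exposed to compounds for 7 days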

>  <Readout Unit>
%

>  <viability, T/C>
96.5

$$$$
>  <Compound>
C#Cc1c(F)ccc2cc(O)cc(-c3ncc4c(N5CC6CCC(C5)N6)nc(OCC56CCCN5CC(F)C6)nc4c3F)c12 (stereo not given) + CCN1C(C(=O)NC23CCC(C(=O)O)(CC2)CC3)C(c2cccc(Cl)c2F)C2(C(=O)Nc3cc(Cl)ccc32)C12CCCCC2

>  <Study System>
171881-019-R-J1-PDC complex spheroid growth, % test/control;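 further: spheroids exposed to compounds for 7 days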

>  <Readout Unit>
%

>  <viability, T/C>
116

$$$$
>  <Compound>
C=C(F)C(=O)N1CCN(c2nc(OCC3CCCN3C)nc3c2CCN(c2cccc4cccc(Cl)c24)C3)CC1CC#N (stereo not given) + CCN1C(C(=O)NC23CCC(C(=O)O)(CC2)CC3)C(c2cccc(Cl)c2F)C2(C(=O)Nc3cc(Cl)ccc32)C12CCCCC2

>  <Study System>
171881-019-R-J1-PDC complex spheroid growth, % test/control;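 further: spheroids exposed to compounds for 7 days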

>  <Readout Unit>
%

>  <viability, T/C>
118

$$$$
>  <Compound>
COc1c(OCCCN2CCOCC2)ccc2c3n(c(=NC(=O)c4cnc(N)nc4)nc12)CCN3 + CCN1C(C(=O)NC23CCC(C(=O)O)(CC2)CC3)C(c2cccc(Cl)c2F)C2(C(=O)Nc3cc(Cl)ccc32)C12CCCCC2

>  <Study System>
171881-019-R-J1-PDC complex spheroid growth, % test/control;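 further: spheroids exposed to compounds for 7 days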

>  <Readout Unit>
%

>  <viability, T/C>
50.9

$$$$
>  <Compound>
CNC(C)C(=O)NC1CN(S(=O)(=O)c2cccc(S(=O)(=O)N3CCC4CCC(C(=O)NC(c5ccccc5)c5ccccc5)N4C(=O)C(NC(=O)C(C)NC)C3)c2)CCC2CCC(C(=O)NC(c3ccccc3)c3ccccc3)N2C1=O (stereo not given) + CCN1C(C(=O)NC23CCC(C(=O)O)(CC2)CC3)C(c2cccc(Cl)c2F)C2(C(=O)Nc3cc(Cl)ccc32)C12CCCCC2

>  <Study System>
171881-019-R-J1-PDC complex spheroid growth, % test/control;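 further: spheroids exposed to compounds for 7 days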

>  <Readout Unit>
%

>  <viability, T/C>
113

$$$$
>  <Compound>
O=C(c1cc(Cc2n[nH]c(=O)c3ccccc23)ccc1F)N1CCN(C(=O)C2CC2)CC1 + CCN1C(C(=O)NC23CCC(C(=O)O)(CC2)CC3)C(c2cccc(Cl)c2F)C2(C(=O)Nc3cc(Cl)ccc32)C12CCCCC2

>  <Study System>
171881-019-R-J1-PDC complex spheroid growth, % test/control;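 further: spheroids exposed to compounds for 7 days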

>  <Readout Unit>
%

>  <viability, T/C>
110

$$$$
>  <Compound>
Cn1ncnc1[C@H]1c2n[nH]c(=O)c3cc(F)cc(c23)N[C@@H]1c1ccc(F)cc1 + CCN1C(C(=O)NC23CCC(C(=O)O)(CC2)CC3)C(c2cccc(Cl)c2F)C2(C(=O)Nc3cc(Cl)ccc32)C12CCCCC2

>  <Study System>
171881-019-R-J1-PDC complex spheroid growth, % test/control;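 further: spheroids exposed to compounds for 7 days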

>  <Readout Unit>
%

>  <viability, T/C>
115

$$$$
>  <Compound>
CCN1CCN(Cc2ccc(Nc3ncc(F)c(-c4cc(F)c5nc(C)n(C(C)C)c5c4)n3)nc2)CC1 + CCN1C(C(=O)NC23CCC(C(=O)O)(CC2)CC3)C(c2cccc(Cl)c2F)C2(C(=O)Nc3cc(Cl)ccc32)C12CCCCC2

>  <Study System>
171881-019-R-J1-PDC complex spheroid growth, % test/control;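 further: spheroids exposed to compounds for 7 days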

>  <Readout Unit>
%

>  <viability, T/C>
112

$$$$

Request body: readout viability, T/C, system 171881-019-R-J1-PDC complex spheroid growth, % test/control, query O=C(c1ccc(F)c(F)c1Nc1ccc(I)cc1F)N1CC(O)([C@@H]2CCCCN2)C1 + CCN1C(C(=O)NC23CCC(C(=O)O)(CC2)CC3)C(c2cccc(Cl)c2F)C2(C(=O)Nc3cc(Cl)ccc32)C12CCCCC2 . Return the value.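 Further: spheroids exposed to compounds for 7 days.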
157

Request body: readout viability, T/C, system 171881-019-R-J1-PDC complex spheroid growth, % test/control, query NC1CCC(NC2CC2c2ccccc2)CC1 (stereo not given) + CCN1C(C(=O)NC23CCC(C(=O)O)(CC2)CC3)C(c2cccc(Cl)c2F)C2(C(=O)Nc3cc(Cl)ccc32)C12CCCCC2 . Return the value.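 Further: spheroids exposed to compounds for 7 days.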
106
